protocol_summary: qHTS of pediatric cancer cell lines to identify multiple opportunities for drug repurposing: Confirmatory screen for LAN-5 cells (AID 1347113); note: nearly all actives have a fitted effect of over 65% in size
condition_info: LAN-5 neuroblastoma cell viability; series mostly up to 45.9 µM
Inconclusive results are not listed. Active and inactive are the calls of the source. Calls come from the whole dose curve; as a rule, active = well fitted cell-killing curve with a large enough effect; inconclusive = small, poorly fitted or top-dose-only effect, or effect the other way; inactive = no such curve, though single readings can be large or run the other way.
Classes used: 1 (yes) for active, 0 (no) for inactive

[
  {
    "compound": "C[C@]12CCC(=O)C=C1CC[C@H]1[C@@H]3CC[C@](O)(C(=O)CO)[C@@]3(C)C[C@H](O)[C@@]12F",
    "cat": "0 (no)"
  },
  {
    "compound": "OC[C@H]1O[C@@H](n2cnc3c(=S)nc[nH]c32)[C@H](O)[C@@H]1O",
    "cat": "1 (yes)"
  },
  {
    "compound": "CC(=O)OCC(=O)[C@@]1(OC(C)=O)[C@@H](C)C[C@H]2[C@@H]3C[C@H](F)C4=CC(=O)C=C[C@]4(C)[C@@]3(F)[C@@H](O)C[C@@]21C",
    "cat": "0 (no)"
  },
  {
    "compound": "CCCCCCC[N+](CC)(CC)CCCCc1ccc(Cl)cc1",
    "cat": "1 (yes)"
  },
  {
    "compound": "CCCCC(CC)CN=C(N)NC(N)=NCCCCCCN=C(N)NC(N)=NCC(CC)CCCC (centres undefined)",
    "cat": "1 (yes)"
  },
  {
    "compound": "CC1(C)O[C@@H]2C[C@H]3[C@@H]4C[C@H](F)C5=CC(=O)CC[C@]5(C)[C@H]4[C@@H](O)C[C@]3(C)[C@]2(C(=O)CO)O1",
    "cat": "0 (no)"
  },
  {
    "compound": "CN(C)C(=S)SC(=S)N(C)C",
    "cat": "1 (yes)"
  },
  {
    "compound": "C[C@]12C=CC(=O)C=C1[C@@H](F)C[C@@H]1[C@@H]2[C@@H](O)C[C@@]2(C)[C@H]1CC[C@]2(O)C(=O)CO",
    "cat": "0 (no)"
  },
  {
    "compound": "C[C@H]1C[C@H]2[C@@H]3CCC4=CC(=O)C=C[C@]4(C)[C@@]3(Cl)[C@@H](O)C[C@]2(C)[C@@]1(O)C(=O)CO",
    "cat": "0 (no)"
  }
]

---

Tested on: Tov-21-G
protocol_summary: Primary qHTS to identify gynecologic anti-cancer compounds using libraries of approved drugs and bioactive compounds (AID 1345084); note: nearly all actives have a fitted effect of over 55% in size
condition_info: Gynecologic cancer cell panel viability, ATPlite luminescence, 48 h; series mostly up to 57.5 µM
Results filed as inconclusive are left out. The source made the active and inactive calls. Calls come from the whole dose curve; as a rule, active = well fitted cell-killing curve with a large enough effect; inconclusive = small, poorly fitted or top-dose-only effect, or effect the other way; inactive = flat fitted curve, though single readings scatter.
Classes used: active, inactive

[
  {
    "compound": "CC(C)N=C(N)/N=C(\\N)Nc1ccc(Cl)cc1",
    "cat": "inactive"
  },
  {
    "compound": "CCCC(=O)Nc1ccc(OCC(O)CNC(C)C)c(C(C)=O)c1 (stereo unspecified)",
    "cat": "inactive"
  },
  {
    "compound": "CCCCCCCCCCCCCCCCOP(=O)([O-])OCC[N+](C)(C)C",
    "cat": "active"
  },
  {
    "compound": "CC1(C)O[C@@H]2C[C@H]3[C@@H]4C[C@H](F)C5=CC(=O)CC[C@]5(C)[C@H]4[C@@H](O)C[C@]3(C)[C@]2(C(=O)CO)O1",
    "cat": "inactive"
  },
  {
    "compound": "CN1CCN(CCCN2c3ccccc3Sc3ccc(S(=O)(=O)N(C)C)cc32)CC1",
    "cat": "inactive"
  },
  {
    "compound": "CC(=O)Oc1ccc2c(c1)CC[C@@H]1[C@@H]2CC[C@]2(C)[C@@H](O)CC[C@@H]12",
    "cat": "inactive"
  }
]

Cited source for all entries: PubChem BioAssay (NCATS)
